System: T47D
Assay: NCI tumour cell line growth inhibition, 48 h
Activity calls are given as the source filed them. Rule as the data show it: active = GI50 up to about 1.1 µM and inactive = higher.
Endpoint name: GI50

Quick check: GI50 of `CC(=O)c1sc2c(c1OC(=O)c1ccccc1)c(=O)n(-c1ccccc1)c(=S)n2-c1ccccc1` ?
9.23 µM (inactive)

Quick check: GI50 of `CC1(C)OCN(c2ccc(Cl)cc2)Cn2c1nc1ccccc12` ?
> 100 µM (inactive)

Quick check: GI50 of `CCN1/C(=C/C#C/C(C)=C\c2sc3ccc(Cl)cc3[n+]2CC)Sc2ccc(Cl)cc21` ?
2.9 µM (inactive)

###

Test system: SN12C
Assay: NCI tumour cell line growth inhibition, 48 h
Activity calls are given as the source filed them. Rule as the data show it: active = GI50 up to about 1.1 µM and inactive = higher.
Entries and their GI50

                                   molecule          measurement
0  COc1cc(O)c2c(c1)OCC(Cc1ccc(O)cc1)C2=O (stereo not drawn)  > 100 µM (inactive)
1  O=C(CC(C(=O)c1ccco1)c1ccsc1)c1ccco1 (stereo not drawn)  > 100 µM (inactive)
2                   CC[P+]1(c2ccccc2)CCCCC1  > 100 µM (inactive)
3  COc1cc(C=C2N=C(c3ccccc3)N(n3c(-c4ccccc4)nc4ccccc4c3=O)C2=O)cc(OC)c1OC   16.9 µM (inactive)
4  CN1C(=O)c2c(c3c4ccccc4n(C)c3c3c2c2ccccc2n3C)C1=O  > 100 µM (inactive)

Quick check: GI50 of `C/C(=N\NC(=O)c1cccnc1)c1cccc(/C(C)=N/NC(=O)c2cccnc2)n1.CC(=O)[O-].CC(=O)[O-].[Zn+2]` ?
4.9 µM (inactive)

Quick check: GI50 of O=C1CC(C2(O)C(=O)Nc3ccc([N+](=O)[O-])cc32)c2ccccc21 (stereo not drawn) ?
31.8 µM (inactive)

Quick check: GI50 of C[C@]12CCC(=O)C=C1CC[C@@H]1C2CC[C@]2(C)Nc3c(ncn3-c3ccc(F)cc3)CC12 (stereo partly drawn) ?
41.3 µM (inactive)

###

Tested on: SF-539
Assay: NCI tumour cell line growth inhibition, 48 h
Calls of active or inactive are those of the source. No stated cut-off is given here; in the data, active = GI50 up to about 1.1 µM and inactive = higher.
Endpoint name: GI50

>>> print(df.to_string())
                                   molecule  target_system  endpoint_name         measurement
0  CCOC(=O)/C=C/[C@H](O)[C@@H](O)/C=C/C(=O)OCC         SF-539           GI50  33.5 µM (inactive)

Quick check: GI50 on SF-539, item C=CCC(CNC(=O)OCc1ccccc1)O[Si](C)(C)C(C)(C)C (stereo not given) ?
28.5 µM (inactive)

Quick check: GI50 on SF-539, item `CC(=O)C1=C(O)/C(=C\c2ccco2)OC1=O` ?
> 10 µM (inactive)

Quick check: GI50 on SF-539, item `COc1ccccc1NC(=S)NN=C(C)c1cccc(C(C)=NNC(=S)Nc2ccccc2OC)n1` ?
19.9 µM (inactive)

Quick check: GI50 on SF-539, item CCC1C(=O)OCc2c1cc1n(c2=O)Cc2cc3ccccc3nc2-1 (stereo not given) ?
1.73 µM (inactive)

Quick check: GI50 on SF-539, item `Cc1cc(C)nc(NS(=O)(=O)c2ccc(Nc3c4ccc(Cl)cc4nc4c(C(=O)Nc5ccc(S(N)(=O)=O)cc5)cccc34)cc2)n1` ?
17.2 µM (inactive)

Quick check: GI50 on SF-539, item CC(Cl)CN1c2ccccc2Sc2ccc(Cl)cc21 (stereo not given) ?
> 10 µM (inactive)

Quick check: GI50 on SF-539, item `Cc1cccc(N2C(=O)C(Cl)=C(Cl)C2=O)c1` ?
> 100 µM (inactive)

Quick check: GI50 on SF-539, item CN(C)CC1CCC/C(=C\c2ccc(N(C)C)cc2)C1=O (stereo not given) ?
15.3 µM (inactive)

Quick check: GI50 on SF-539, item CC1(C)CC(O)C2=C(O1)C(=O)c1ncccc1C2=O (stereo not given) ?
1.84 µM (inactive)
